- assay-method-text: inhibitors of DENV2 cytopathic effect, primary screen, cell-based, plate reader, single concentration (AID 651640);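 also: 0% = median of neutral control wells and 100% = median of positive control wells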
- reported-conditions: DENV2-infected cells, cytopathic effect rescue, at 9.99 µM, stronger effect = higher value
About 6,000 (1.7%) of roughly 350,000 compounds were called active. Not shown: some 5% with an inconclusive outcome. This excerpt belongs to a sample that is enriched for actives.
Known CPE inhibition of a selection of molecules
readout-label: CPE inhibition (%)

{"columns": ["item-smiles", "readout-label", "endpoint-value"],
 "data": [
  ["CCOc1ncccc1C(=O)Nc1ccc(S(=O)(=O)Nc2nc(C)cc(C)n2)cc1", "CPE inhibition", -5.45],
  ["N#C[C@@H]1[C@@H](c2ccc(-c3ccccc3F)cc2)[C@@H](CO)N1C(=O)c1ccccn1", "CPE inhibition", -0.879],
  ["CCN(CC(=O)NCc1cccs1)C(=O)c1cccc(S(=O)(=O)Nc2ccccc2OC)c1", "CPE inhibition", 0.937],
  ["C[C@@H]1CN([C@@H](C)CO)C(=O)c2cc(C#Cc3ccncc3)cnc2O[C@@H]1CN(C)C(=O)CN(C)C", "CPE inhibition", -5.91],
  ["Cc1cccc(Oc2c([N+](=O)[O-])c(=O)n(C)c3ccccc23)c1", "CPE inhibition", -2.07]
]}
